Study System: Human immunodeficiency virus type 1 reverse transcriptase (Human immunodeficiency virus 1, UniProt Q72547)
Readout: Ki (nM)

[[record]]
mol = "O=C(O)c1cn([C@@H]2O[C@H](CO)[C@@H](O)[C@H]2O)c2ccc(Cl)cc2c1=O"
readout = "Ki"
reported_result = 500


###

Tested on: Human immunodeficiency virus 1
Run Description: Antiviral activity against R5-tropic Human immunodeficiency virus 1 Ba-L subtype B infected in human PBMC assessed as inhibition of viral replication after 7 days by ELISA
Type: functional, organism-based
Test Settings: 168 h
pEC50: −log10 of the molar value.
Assign criterion met to entries whose pEC50 meets or exceeds 5; assign criterion not met to the rest.

[[record]]
mol = "CCOC(=O)c1cn(CP(=O)(OC(C)C)OC(C)C)c2cc(Br)ccc2c1=O"
label_class = "criterion not met"

[[record]]
mol = "CCOC(=O)c1cn(CP(=O)(OC(C)C)OC(C)C)c2cc(F)ccc2c1=O"
label_class = "criterion met"

[[record]]
mol = "CCOC(=O)c1cn(CP(=O)(OC(C)C)OC(C)C)c2ccc(C)cc2c1=O"
label_class = "criterion not met"

[[record]]
mol = "CCOC(=O)c1cn(CP(=O)(OC(C)C)OC(C)C)c2ccc([N+](=O)[O-])cc2c1=O"
label_class = "criterion not met"


These entries and their values trace back to ChEMBL document CHEMBL2057117.
